ASSAY_EXPLANATION: CHI Log D procedure
Assay type: physicochemical
ASSAY_CONDITIONS: pH 7.4
Hi there, I'd appreciate the recorded CHI Log D for every entry that follows.
One number for each entry.

{"COMPOUND": "CC[C@H](C)[C@@H]1NC(=O)[C@H](CC(=O)O)NC(=O)[C@]2(CC=CCCCC3(CCCC=CCCCCCC[C@@](C)(C(=O)N[C@@H](Cc4ccccc4)C(=O)N[C@@H](Cc4c[nH]c5ccccc45)C(=O)N[C@@H](Cc4c[nH]cn4)C(N)=O)NC(=O)[C@H](C(C)C)NC(=O)[C@H](Cc4ccccc4)NC(=O)[C@H](C)NC(=O)[C@H](C)NC(=O)[C@H](CCC(=O)O)NC(=O)[C@H](CC(=O)O)NC3=O)NC1=O)CCCN2C(C)=O (stereo partly drawn)", "QUANTITY_KIND": "CHI Log D", "VALUE": 2.58}
{"COMPOUND": "CCN(CC(=O)O)C[C@@H]1NC(=O)[C@H](CC(=O)O)NC(=O)C2(CCCC=CCCCOC(=O)N3CC[C@@](C(=O)N[C@@H](Cc4ccsc4)C(=O)N[C@@H](Cc4csc5ccccc45)C(=O)N[C@@H](CO)C(N)=O)(C3)NC(=O)[C@H](CO)NC(=O)[C@H](Cc3ccccc3)NC(=O)[C@H](C)NC(=O)[C@H](C)NC1=O)CCCC=CC[C@]1(CCCN1C(C)=O)C(=O)N[C@@H](CC(=O)O)C(=O)N[C@@H](CC(C)(C)C)C(=O)N2 (stereo partly drawn) [I-975]", "QUANTITY_KIND": "CHI Log D", "VALUE": 1.952}

// next item, CHI Log D requested
[in] Which value of CHI Log D has been reported for CC[C@H](C)[C@@H]1NC(=O)[C@H](CC(=O)O)NC(=O)[C@]2(CC=CCCCC3(CCCC=CCCCCCC[C@@](C)(C(=O)N[C@@H](Cc4ccsc4)C(=O)N[C@@H](Cc4csc5ccccc45)C(N)=O)NC(=O)[C@H](CC(N)=O)NC(=O)[C@H](Cc4ccccc4)NC(=O)[C@H](C)NC(=O)[C@H](C)NC(=O)[C@H](CCC(=O)O)NC(=O)[C@H](CC(=O)O)NC3=O)NC1=O)CCCN2C(C)=O (stereo partly drawn) [I-720] in the records?
[out] 2.665
